biological target: MelBEc (Escherichia coli)
Sequence (P02921 2-473): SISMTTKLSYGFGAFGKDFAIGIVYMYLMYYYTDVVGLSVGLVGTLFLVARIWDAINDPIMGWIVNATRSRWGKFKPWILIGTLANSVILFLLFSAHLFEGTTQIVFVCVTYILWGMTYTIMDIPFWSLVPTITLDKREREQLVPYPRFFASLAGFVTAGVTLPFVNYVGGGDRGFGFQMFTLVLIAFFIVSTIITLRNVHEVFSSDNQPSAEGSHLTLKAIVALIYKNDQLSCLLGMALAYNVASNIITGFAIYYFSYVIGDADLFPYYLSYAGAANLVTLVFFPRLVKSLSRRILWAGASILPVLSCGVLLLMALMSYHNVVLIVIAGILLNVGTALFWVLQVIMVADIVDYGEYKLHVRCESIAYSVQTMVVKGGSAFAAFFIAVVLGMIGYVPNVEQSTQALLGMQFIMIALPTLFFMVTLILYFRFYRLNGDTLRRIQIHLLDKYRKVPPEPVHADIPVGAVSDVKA
metric: pKd
Units for pKd: none; it is -log10 of a concentration expressed in mol/L.

Item OC[C@H]1O[C@H](OC[C@H]2OC(O)[C@H](O)[C@@H](O)[C@@H]2O)[C@H](O)[C@@H](O)[C@H]1O (stereo partly shown) [melibiose] has what recorded pKd?
2.89

----------
molecular target: MelBSt (Salmonella enterica, UniProt P30878, R295C); conditions: RSO vesicles solubilized with MNG-3, 10 μM D^2G, 20 mM NaCl
metric: pIC50
Units for pIC50: none; it is -log10 of a concentration expressed in mol/L.

Form: Entry = OC[C@H]1O[C@H](OC[C@H]2OC(O)[C@H](O)[C@@H](O)[C@@H]2O)[C@H](O)[C@@H](O)[C@H]1O (stereo partly shown) | System = MelBSt (Salmonella enterica, UniProt P30878, R295C) | pIC50 = ____
2.26

Origin of the recorded values: paper PMC4646067
